Kindly state inhibition at 1 µM for each of the entries shown.
TARGET: human FLT-3 (Arg571-Ser993) (Homo sapiens, UniProt P36888)
Construct: human FLT-3 (Arg571-Ser993); GST (N); purchased Cell Signaling Technology; host or cells: baculovirus expression system
Sequence (P36888 571-993): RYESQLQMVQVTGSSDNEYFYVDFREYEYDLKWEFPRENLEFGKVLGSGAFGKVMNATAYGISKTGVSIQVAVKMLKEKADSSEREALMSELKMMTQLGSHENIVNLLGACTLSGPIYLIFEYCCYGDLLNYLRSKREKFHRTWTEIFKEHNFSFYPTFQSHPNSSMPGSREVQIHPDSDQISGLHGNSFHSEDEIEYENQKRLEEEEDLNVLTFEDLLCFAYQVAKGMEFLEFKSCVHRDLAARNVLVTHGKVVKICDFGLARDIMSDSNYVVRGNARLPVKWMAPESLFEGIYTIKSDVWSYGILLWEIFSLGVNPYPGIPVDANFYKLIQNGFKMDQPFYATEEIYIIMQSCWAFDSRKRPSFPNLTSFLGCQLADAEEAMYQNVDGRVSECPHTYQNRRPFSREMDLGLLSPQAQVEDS
ASSAY: FLT-3 kinase assay (HTScan kit, DELFIA)
Type: biochemical
RUN_CONDITIONS: compound at 1 μM; read-out: FLT-3 1 μM, % of inhibition relative to control
Answers are plain numbers, in %.

>>> df
                                   compound  numeric_readout
0  O=C1Nc2ccc(F)cc2/C1=C\c1cc2cccccc-2c1 [Compound 40]             95.5
1  Cc1cc(C=C2C(=O)Nc3ccc(F)cc32)c2ccccc(OCCCN3CCOCC3)c1-2 (mixture of isomers) [Compound 87]             85.7
2  Cc1cc(/C=C2/C(=O)N(Cc3ccccc3)c3ccccc32)c2c(C)ccc(C(C)C)cc1-2 [Compound 13]              0.2

// each compound listed below needs its inhibition at 1 µM
1. CCOC(=O)N1CCC(Nc2ccc3c(c2)NC(=O)/C3=C/c2cc(C)c3c(OCCCN(C)C)ccccc2-3)CC1 [Compound 97]
2. O=C1Nc2ccc(F)cc2/C1=C/c1cc2cccccc-2c1 [Compound 41]
3. Cc1cc(/C=C2/C(=O)N(Cc3ccc(C#N)cc3)c3ccccc32)c2c(C)ccc(C(C)C)cc1-2 [Compound 74]

A.
1. 23.9
2. 87.6
3. 69.4

// each compound listed below needs its inhibition at 1 µM
1. O=C1Nc2ccc(F)cc2/C1=C\c1ccc2cccccc1-2 [Compound 25]
2. Cc1ccc2c(c1)/C(=C\c1ccc3cccccc1-3)C(=O)N2 [Compound 47]
3. CC(C)c1cc(C=C2C(=O)Nc3ccc(F)cc32)c2cccccc1-2 [Compound 81]

A.
1. 58.8
2. 48.6
3. 43.5
